assayedSystem: Adenosine receptor A1 (Homo sapiens, UniProt P30542)
Sequence (P30542 whole entry): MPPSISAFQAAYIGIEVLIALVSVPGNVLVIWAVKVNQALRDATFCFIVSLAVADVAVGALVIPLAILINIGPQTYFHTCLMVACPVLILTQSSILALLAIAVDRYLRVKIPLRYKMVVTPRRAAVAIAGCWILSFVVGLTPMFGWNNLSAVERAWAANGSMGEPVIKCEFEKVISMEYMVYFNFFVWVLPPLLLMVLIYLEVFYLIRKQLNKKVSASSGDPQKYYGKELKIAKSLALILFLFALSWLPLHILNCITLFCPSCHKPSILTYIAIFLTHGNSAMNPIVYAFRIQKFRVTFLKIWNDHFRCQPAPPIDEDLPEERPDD
assayProcedure: Displacement of [3H]-CCPA from human recombinant adenosine A1 receptor expressed in CHO cell membranes after 3 hrs by microbeta counting analysis
pKi: −log10 of the molar value.
experimentalEndpoint: pKi

Reported pKi for Cn1c(=O)c2[nH]c(Cc3ccc(OCCCCl)cc3)nc2n(C)c1=O : what is it?
< 4.52

Reported pKi for Cn1c(=O)c2[nH]c(-c3ccc(OC4CCCC4)cc3)nc2n(C)c1=O : what is it?
< 4.52

Reported pKi for Cn1c(=O)c2[nH]c(-c3ccc(OCCCCl)cc3)nc2n(C)c1=O : what is it?
< 5.00

Reported pKi for Cn1c(=O)c2[nH]c(Cc3ccc(OCCCn4ccnc4)cc3)nc2n(C)c1=O : what is it?
< 4.52

Reported pKi for Cn1c(=O)c2[nH]c(Cc3ccc(OCCCN4CCOCC4)cc3)nc2n(C)c1=O : what is it?
< 4.52

Reported pKi for Cn1c(=O)c2[nH]c(Cc3ccc(OCCCN4CCC5(CC4)OCCO5)cc3)nc2n(C)c1=O : what is it?
< 4.52

* * *

assayedSystem: UniProtKB P29275
Sequence (P29275 whole entry): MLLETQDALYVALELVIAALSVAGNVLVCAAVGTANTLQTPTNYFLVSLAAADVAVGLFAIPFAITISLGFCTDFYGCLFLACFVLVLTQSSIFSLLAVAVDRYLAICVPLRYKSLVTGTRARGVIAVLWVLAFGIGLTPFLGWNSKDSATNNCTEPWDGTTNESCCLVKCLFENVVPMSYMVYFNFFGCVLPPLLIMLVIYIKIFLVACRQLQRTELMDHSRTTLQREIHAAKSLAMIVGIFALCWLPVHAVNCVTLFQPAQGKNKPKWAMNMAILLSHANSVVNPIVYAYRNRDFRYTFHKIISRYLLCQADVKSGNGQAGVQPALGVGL
assayProcedure: Binding affinity to human recombinant adenosine A2B receptor expressed in CHO cell membranes assessed as inhibition of NECA-stimulated adenylyl cyclase activity after 20 mins
In this section we review reported Ki values for a set of compounds.

Cn1c(=O)c2[nH]c(Cc3ccc(OCCCCl)cc3)nc2n(C)c1=O = > 10 µM
Cn1c(=O)c2[nH]c(Cc3ccc(OCCCN4CCC5(CC4)OCCO5)cc3)nc2n(C)c1=O = > 10 µM

Kindly review the next compound as well.
Reported Ki for Cn1c(=O)c2[nH]c(Cc3ccc(OCCCN4CCOCC4)cc3)nc2n(C)c1=O : what is it?
> 10 µM

Where these numbers come from: ChEMBL document CHEMBL3120062
